Assign logP to each entry below.
Output: the number by itself.

## Task Return reported logP; argument: `OCCCCc1ccccn1`
## Result 0.86

## Task Input `COP(=S)(OC)SCC(=O)N(C)C=O`
## Result 1.48

## Task Try CN(N=O)C(=O)NC1C(O)OC(CO)C(O)C1O (stereo not drawn) next.
## Result -1.45

## Task What do you get for `O=C(O)c1ccccc1I` ?
## Result 2.4

## Task Entry to check: CC(C)C(C(=O)OC(C#N)c1cccc(Oc2ccccc2)c1)c1ccc(Cl)cc1 (stereo not drawn)
## Result 6.2

## Task And then `COC(=O)CC(=O)OC` , what is it?
## Result -0.05

## Task Do the same for `CCN(CC)CCNC(=O)c1ccccc1OC` please
## Result 1.98

## Task Follow-up entry: `O=C(O)Cc1cccc(C(F)(F)F)c1`
## Result 2.62

* * *

Peptide text beside a SMILES is read from it.
I would appreciate it if you labelled entries True when logP is 3 or higher, otherwise False.

## Task Reported logP at or above 3? `OC(CF)CF`
## Result False

## Task Now the same for `Oc1c(Br)cc(Br)cc1Br`
## Result True

## Task And `CC(=O)OCC1=C(C(=O)O)N2C(=O)[C@@H](NC(=O)CC#N)[C@H]2SC1` ?
## Result False

## Task Also `CCOP(=S)(OCC)SCSc1ccc(Cl)cc1` ?
## Result True

## Task Query `C=CCCC(C)=O` next
## Result False

## Task // repeat for `O=C(O)Cc1ccccc1Nc1c(Cl)cc(O)cc1Cl` and report
## Result True

## Task Now consider `O=[N+]([O-])c1cc(Cl)c(O)c(Cl)c1Cl` .
## Result True

## Task Subsequent entry: `COc1ccccc1C`
## Result False

## Task Subsequent entry: `Cc1ccc(OCC(=O)NNC(C)C)cc1`
## Result False

## Task Also need `O=C(O)CCCCCCc1ccccc1` , thanks.
## Result True

## Task Subsequent entry: O=NN1CCC(Cl)C(Cl)C1 (configuration not stated)
## Result False

## Task Also `CCC1(CC)C(=O)NC(=O)N(C(C)C)C1=O` ?
## Result False

## Task Let us now turn to `CN(C)C(CSS(=O)(=O)c1ccccc1)CSS(=O)(=O)c1ccccc1`
## Result True

## Task Lookup CCCCSCS(=O)CC(CO)NC(=O)C=Cc1c(C)[nH]c(=O)[nH]c1=O (configuration not stated)
## Result False

## Task Ok, now `COC1=CC(=O)c2ccccc2C1=O`
## Result False

## Task `O=C(O)c1ccc(O)cc1O` ?
## Result False

## Task Now consider CC1CCCCN1N=O (configuration not stated) and answer again.
## Result False

## Task Another compound to look at: `CON(C)C(=O)Nc1ccc(OCCCCOc2ccccc2)cc1`
## Result True

## Task Next record, please: `CCc1ccc2ccccc2c1`
## Result True

## Task // repeat for `NC(=O)c1cccc([N+](=O)[O-])c1` and report
## Result False

## Task Here is the next compound: CCC(C)c1cc([N+](=O)[O-])cc(C(C)CC)c1O (configuration not stated)
## Result True

## Task Try this compound too: `CCN(CC)CCc1cccnc1`
## Result False

## Task // query: `NCCc1cccnc1`
## Result False

## Task Similarly, CC(=O)N[C@@H](C)C(=O)NCC(=O)N[C@@H](Cc1ccccc1)C(N)=O (Ac-Ala-Gly-Phe-NH2) ?
## Result False

## Task Repeat with `O=[N+]([O-])c1ccc(O/N=C/c2cc(Br)c(O)c(Br)c2)c([N+](=O)[O-])c1`
## Result True

## Task Next entry: `CCCCSC1=CC(=O)c2ccccc2C1=O`
## Result True

## Task `NC(N)=Nc1ccccc1` ?
## Result False

## Task Field entry: `CC(=O)Oc1cccc(O)c1`
## Result False

## Task Try the compound `CCCOC(=O)C(C(=O)OCCC)=C1SC=CS1`
## Result True

## Task Now the compound `Brc1cccnc1`
## Result False

## Task Item: `COC(=O)c1cccc(O)c1`
## Result False

## Task Do the same for C=C1C(=O)OC2C1CCC(C)C1C=CC(=O)C12C (configuration not stated) please
## Result False

## Task Okay, and `CCOC=O` ?
## Result False

## Task Item: `NC(=O)NO`
## Result False

## Task Next entry: `O=C(O)Cc1cccc(O)c1`
## Result False

## Task Please give the result for `Cc1ccnc(NS(=O)(=O)c2ccc(N)cc2)n1` too.
## Result False

## Task Can you handle CC(=O)NC(CCC(=O)O)C(=O)NC(Cc1ccccc1)C(=O)NC(CC(C)C)C(N)=O (stereo not drawn) (Ac-Glu-Phe-Leu-NH2; configuration not given here) next?
## Result False

## Task How about this compound: `Clc1nc(Cl)c(Cl)c(Cl)c1Cl`
## Result True

## Task Would you kindly repeat that for CC1Nc2cc(Cl)c(S(N)(=O)=O)cc2S(=O)(=O)N1 (configuration not stated) ?
## Result False

## Task Try this compound too: CC1(O)CC23C(O)C1CCC2(O)C(C)(O)C1C2OC2C(C)(C)C1(O)C(O)C3O (configuration not stated)
## Result False

## Task And CC(C)OC(=O)n1cnc(CC(NC(=O)C2CCC(=O)N2)C(=O)N2CCCC2C(N)=O)c1 (configuration not stated) ?
## Result False

## Task Same thing, different compound: `CCOCOCC`
## Result False

## Task // repeat for `Cc1cc2c(cc1C)C(=O)C=CC2=O` and report
## Result False

## Task Now the compound CCCCCC1(c2ccncc2)CCC(=O)NC1=O (configuration not stated)
## Result False

## Task Subsequent entry: `O=S(=O)(O)c1ccc2ccccc2c1`
## Result False

## Task Another: `CC(=O)c1cccc(C#N)c1`
## Result False

## Task And the next one, CN(C)C(N(C)C)=S(I)c1cc(Cl)cc(Cl)c1 (configuration not stated) ?
## Result False

## Task Also, `O=C1Cc2ccccc2N1` please.
## Result False

## Task And `Cc1ccc([N+](=O)[O-])cc1N` ?
## Result False

## Task Input `CCCCOC(=O)c1ccc(O)cc1`
## Result True

## Task Next up: `Cc1ccc2cc(C)ccc2c1`
## Result True

## Task Try this compound too: `Nc1c([N+](=O)[O-])cc(C(F)(F)F)cc1[N+](=O)[O-]`
## Result False

## Task Moving on to `Cc1c(Cl)cccc1Nc1ccccc1CC(=O)O`
## Result True

## Task Check `NNC(=O)c1ccc(I)cc1` too.
## Result False

## Task Repeat with `O=S1(=O)Nc2ccccc2N1`
## Result False

* * *

One threshold, 0.8, splits the recorded logP values: lower ones are Criterion met, equal or higher ones are Criterion not met.

## Task Hi there! Is logP for `Nc1ccc(S(=O)(=O)Nc2nccs2)cc1` below 0.8, do you know?
## Result Criterion met

## Task // same read-out, input: `CS(=O)(=O)Nc1ccccc1`
## Result Criterion not met

## Task Same question for `CNC(=O)c1ccccc1` please.
## Result Criterion not met

## Task Again, but for `CNC(=O)Oc1cccc2ccccc12`
## Result Criterion not met

## Task # repeat for `CCCCOc1cccnn1`
## Result Criterion not met

## Task Also c1ccc(C2CO2)cc1 (stereo unspecified) ?
## Result Criterion not met

## Task Now the compound CC(O)CN (stereo unspecified)
## Result Criterion met

## Task Do the same for `CSc1cccc(NC(N)=O)c1` please
## Result Criterion not met

## Task Follow-up item: `c1ccc(-c2ccc(NCCN3CCOCC3)nn2)cc1`
## Result Criterion not met

## Task Next: `CCc1ccccc1C`
## Result Criterion not met

## Task Now this one: O=C(Nc1ccccc1)NC1CC(O)C(CO)OC1O (stereo unspecified)
## Result Criterion met

## Task Cool, now `O=[N+]([O-])Cc1ccccc1`
## Result Criterion not met

## Task And `COCCNC(=S)C(F)(F)Cn1cnc([N+](=O)[O-])n1` ?
## Result Criterion met

## Task Similarly, `CCOC(=O)C(=Cc1ccccc1OC)C(C)=O` ?
## Result Criterion not met

## Task Note, next up: `Cc1[nH]ncc1[N+](=O)[O-]`
## Result Criterion not met

* * *

Measure name: logP
Please give the numeric answer without any surrounding text.

## Task Need logP of `CC(=O)c1ccc2ncccc2c1` , thanks.
## Result 1.58

## Task Moving on to the next compound: `CCSc1ccccc1`
## Result 3.2

## Task Now consider `COc1cccc(Cl)c1` .
## Result 2.98

## Task Now try `Cc1ccc(O)c([N+](=O)[O-])c1` .
## Result 2.37

## Task Please give the result for `C1COC1` too.
## Result -0.14

## Task Thanks! And `N#Cc1ccc2ccccc2n1` ?
## Result 1.6

## Task Next record, please: CCCC(O)C(C(=O)O)c1ccc(-c2ccccc2)cc1 (stereo not drawn)
## Result 3.75

## Task Follow-up entry: `Cc1cccc2ncc(-c3ccccc3)c(=O)n12`
## Result 2.59
